Molecular target: T1, human IGF-1 receptor (human, UniProt P08069 31-1367)
T1 construct: whole, on cells; also called IGF-IR; IGR-1R
Test: competition with 125I-IGF-1, receptor membranes, SPA
Bridges are numbered along the chain shown (N, C = ends). Roman numbers before positions name the chains, in order. Where no end group is shown, it is not given here.
Parameter: % IGF-1 (in test). Scope: all listed entries.
metric.name: % IGF-1 (in test) (%)

{"columns": ["binder", "unit", "test.result"],
 "data": [
  ["IGF-1 A (H8 A9 N21):B(H5D10Y16L17 A22) DPI A-COOH (ligand) chain 1: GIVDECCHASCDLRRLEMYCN chain 2: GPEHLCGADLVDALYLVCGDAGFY", "%", 2.3],
  ["IGF-1 A:In B(1-5)-IGF-1 B(YL)(6-30) (ligand, not fully specified (bridges); cysteine pairing not given here; also: C-terminal amide, chain not given here) chain 1: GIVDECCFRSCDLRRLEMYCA chain 2: FVNQHLCGAELVDALYLVCGDRGFYFNKPT", "%", 3.6],
  ["IGF-1 A:B(D10Y16L17) DPI A-COOH (ligand, disulfide I:6-I:11, I:20-II:18, I:7-II:6) chain 1: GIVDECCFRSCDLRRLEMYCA-OH chain 2: GPETLCGADLVDALYLVCGDRGFY-NH2", "%", 7.7],
  ["IGF-1 A:In (1-17)-IGF-1 B (18-30) (ligand, disulfide I:6-I:11, I:20-II:19, I:7-II:7) chain 1: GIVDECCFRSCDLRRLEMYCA-NH2 chain 2: FVNQHLCGSHLVEALYLVCGDRGFYFNKPT-NH2", "%", 0.9],
  ["IGF-1 A (H8 A9 N21):B(H5D10Y16L17) DPI A-COOH (ligand, disulfide I:6-I:11, I:20-II:18, I:7-II:6) chain 1: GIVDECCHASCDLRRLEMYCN-OH chain 2: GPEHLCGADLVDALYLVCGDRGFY-NH2", "%", 12.9]
]}

These data points were gathered from patent US20150299285A1.
